Kindly state melting point for each of the entries shown.

Tell us which melting point value is on record for Cc1ccc(C2CC(c3ccc(Br)cc3)=NN2c2nc(N(C)CCN(C)C)c3ccsc3n2)cc1 (centres unmarked) [Compound 13h]
272 to 273 °C

Tell us which melting point value is on record for `Cc1ccc(-c2ccnn2-c2nc(N3CCOCC3)c3sccc3n2)cc1`
166.8 to 171.5 °C

Tell us which melting point value is on record for Cc1ccc(C2CC(c3ccc(Cl)c(Cl)c3)=NN2c2nc(N(C)CCN(C)C)c3ccsc3n2)cc1 (centres unmarked) [Compound 13g]
269 to 270 °C

Tell us which melting point value is on record for COc1ccc(C2CC(c3ccc(F)cc3)=NN2c2nc(N(C)CCN(C)C)c3ccsc3n2)cc1 (centres unmarked) [Compound 13j]
286 to 287 °C

Tell us which melting point value is on record for CN(C)CCN(C)c1nc(N2N=C(c3ccc(Cl)c(Cl)c3)CC2c2ccc(Br)cc2)nc2sccc12 (centres unmarked) [Compound 13b]
291 to 294 °C

Tell us which melting point value is on record for COc1ccc(C2CC(c3ccc(Cl)c(Cl)c3)=NN2c2nc(N(C)CCN(C)C)c3ccsc3n2)cc1 (centres unmarked) [Compound 13a]
232 to 233 °C

Tell us which melting point value is on record for CN(C)CCN(C)c1nc(N2N=C(c3ccccc3)CC2c2ccccc2)nc2sccc12 (centres unmarked) [Compound 13i]
225 to 227 °C

Tell us which melting point value is on record for `Fc1ccc(-c2ccnn2-c2nc(N3CCOCC3)c3sccc3n2)cc1`
228 to 231 °C
